// values below are reported apparent KD of K4 kissing-loop reporter
# System: K4 kissing-loop RNA reporter;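 note: bound reporter read as fluorescence of individual clusters on recovered sequencing chips by microscopy, with normalized cluster intensities fitted with a binding model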
# Run description: apparent KD of K4 kissing-loop reporter; higher = weaker reporter binding
# Condition description: Eterna round: R107; input ligand: tryptophan 2.4 mM
Metric name: apparent KD of K4 kissing-loop reporter (µM)

Construct sequence	Metric name	Numeric value
AUUUUGGUUUAGAGUGAUGUUCCUUGUAUUCGAGGACCGGUACGGCCGCCACUCGAAUAGAAAAGAAAAGAAAUGUUUGAUGUUU [BDazzled - #6 SS Tryptophan A]	apparent KD of K4 kissing-loop reporter	0.393
UGUGUUGUUGUGAUGUUUGGUGUUGUAGGGCAGGAUAUCGUAGAGGCGAGAAGGGCUUGUGGGCGGUAUGAGUGAUGUUUGUAGG [cfiuxmullin]	apparent KD of K4 kissing-loop reporter	0.101
CUGGGUUGACGAAAAGUCAACAAAAGAGAAGGAGCGCACGAAAGUGCAGGUAGGUCGCUCAGUCCAGUGAUGUUGGAUCAUCCAG [#SwitchBubble 11 #K4Late]	apparent KD of K4 kissing-loop reporter	0.346
AUCAUUAGUUCGGCCGCCACUCCAGUGAUGUUGGAGGGACGCAUAAUAUGCGCGCGGCCAACUAGGAGGACCGGGAACUUUAAGC [Intionge]	apparent KD of K4 kissing-loop reporter	0.103

From: the supplement of paper PMC9170038
